Experiment: AUC in ICR mouse at 3 mg/kg, po and measured after 24 hrs by LC-MS/MS analysis
Assay type: ADME, organism-based
Conditions: in vivo
readout_label: AUC at 24 h (µM·h)
One number for each entry, in µM·h.

Lab book: AUC at 24 h of `C[C@H](Oc1cc(C(=O)N(C)C)ccc1Nc1nc(O[C@H]2CC[C@@](C)(O)CC2)c2c(Cl)c[nH]c2n1)C(F)(F)F` noted as 22.5

###

Assay: Cmax in Sprague-Dawley rat at 3 mg/kg, po by LC-MS/MS analysis
Format: ADME, organism-based
Conditions: in vivo
readout_label: Cmax

Lab book: Cmax of `C[C@H](Oc1cc(C(=O)N(C)C)ccc1Nc1nc(O[C@H]2CC[C@@](C)(O)CC2)c2c(Cl)c[nH]c2n1)C(F)(F)F` noted as 4.35 µM

###

Assignment: determine reported metabolised at 0.5 h for the given compounds.
Assay: Metabolic stability in mouse liver microsomes assessed as drug metabolism measured after 30 mins
Type: ADME, Microsome
Conditions: read-out: Drug metabolism
Numbers only, in %.

[[record]]
compound_structure = "CN(C)C(=O)c1cc2cnc(Nc3ccc(-c4cnn(C)c4)cc3Cl)cc2[nH]1"
readout_label = "metabolised at 0.5 h"
meas_value = 20

[[record]]
compound_structure = "CN(C)C(=O)c1cc2cnc(Nc3ccc(S(=O)(=O)N(C)C)cc3Cl)cc2[nH]1"
readout_label = "metabolised at 0.5 h"
meas_value = 25

[[record]]
compound_structure = "COC1CCN(C(=O)c2ccc(Nc3cc4[nH]c(C(=O)N(C)C)cc4cn3)c(Cl)c2)CC1"
readout_label = "metabolised at 0.5 h"
meas_value = 23

[[record]]
compound_structure = "CN(C)C(=O)c1cc2cnc(Nc3ccc(-c4cncn4C)cc3Cl)cc2n1C(=O)OC(C)(C)C"
readout_label = "metabolised at 0.5 h"
meas_value = 28


Switching to the query record.
Lab book: metabolised at 0.5 h of `CN(C)C(=O)c1ccc(Nc2cc3c(cn2)cc(C(=O)N(C)C)n3C(=O)OC(C)(C)C)c(Cl)c1` noted as 48

###

Assignment: determine reported pIC50 for the given compounds.
Target: CYP450 (Homo sapiens, UniProt P04798+P05177+P05181+P08684+P10632+P10635+P11509+P11712+P13584+P20813+P20815+P20853+P24462+P24903+P33260+P33261+P51589+P78329+P98187+Q02928+Q08477+Q16678+Q16696+Q5TCH4+Q6VVX0+Q7Z449+Q8TAV3+Q96SQ9+Q9HB55)
Test: Inhibition of CYP450 (unknown origin)
Type: ADME, protein assay
Numbers only, as −log10 of the molar value.

[[record]]
compound = "CCc1ccccc1C(C(=O)Nc1ccc2[nH]nc(-c3cccc(S(N)(=O)=O)c3)c2c1)N(C)C (configuration not stated)"
meas_value = 6.15


Lab book: pIC50 of NS(=O)(=O)c1cccc(-c2n[nH]c3ccc(NC(=O)C(c4ccsc4)N4CCCC4)cc23)c1 (configuration not stated) noted as 6.05

###

Test: Half life in mouse
Assay type: ADME, organism-based
Conditions: in vivo
readout_label: half-life (h)
One number for each entry, in h.

[[record]]
compound = "CCC(=O)N[C@H]1CC[C@@H](n2c(=O)cc(C)c3cnc(Nc4ccc(N5CCN(C(=O)CCCCC#Cc6ccc7c(c6)CN(C6CCC(=O)NC6=O)C7=O)CC5)cc4OC)nc32)CC1 (some centres not stated)"
uom = "h"
meas_value = 3.2


Switching to the query record.
Lab book: half-life of CCC(=O)N[C@H]1CC[C@@H](n2c(=O)cc(C)c3cnc(Nc4ccc(N5CCN(C(=O)CCC#Cc6ccc7c(c6)CN(C6CCC(=O)NC6=O)C7=O)CC5)cc4OC)nc32)CC1 (some centres not stated) noted as 4.3
